molecular target: GST-Syk Full Protein (human) (Homo sapiens); assay: Syk kinase inhibition test (HTRF method); format: biochemical; settings: HTRF, 100 μM ATP, 30 min room temperature, average; read-out: sykHTRF ave IC50
Each entry below lists one item and its recorded IC50 value.

{"columns": ["Compound", "IC50"],
 "data": [
  ["Cc1ccnc(Nc2cccc(-c3cnc(CN4CCN(S(C)(=O)=O)CC4)s3)n2)c1", "0.1 to 1 µM"],
  ["Cc1ccnc(Nc2cccc(-c3cnc(CC(=O)N4C[C@@H](O)[C@@H](O)C4)s3)n2)c1", "0.1 to 1 µM"],
  ["CC(=O)N[C@@H](C)c1nc(C(C)=O)c(-c2cccc(Nc3cc(C)ccn3)n2)s1", "> 1 µM"],
  ["COc1ccnc(Nc2cccc(-c3cnc([C@H](C)O)s3)n2)c1", "< 0.1 µM"],
  ["Cc1ccnc(Nc2cccc(-c3cnc([C@@H]4COC(C)(C)O4)s3)n2)c1", "0.1 to 1 µM"],
  ["Cc1ccnc(Nc2cccc(-c3cnc(C(=O)N4CCCC(O)C4)s3)n2)c1 (stereo not shown)", "0.1 to 1 µM"],
  ["COC(=O)CCCc1ncc(-c2cccc(Nc3cc(C)ccn3)n2)s1", "0.1 to 1 µM"],
  ["Cc1ccnc(Nc2cccc(-c3sc([C@H](C)NC(=O)CCC(=O)O)nc3C)n2)c1", "> 1 µM"],
  ["CCOC(=O)c1nc([C@H](C)NC(C)=O)sc1-c1cccc(Nc2cc(C)ccn2)n1", "> 1 µM"],
  ["Cc1ccnc(Nc2cccc(-c3cnc([C@@H]4CCC(=O)N4C)s3)n2)c1", "0.1 to 1 µM"],
  ["Cc1ccnc(Nc2cccc(-c3cnc(C(=O)NC(C)(C)C(=O)O)s3)n2)c1", "0.1 to 1 µM"],
  ["CCOC(=O)CCC(=O)N[C@@H](C)c1ncc(-c2cccc(Nc3cc(C)ccn3)n2)s1", "> 1 µM"],
  ["CC(=O)OC(Cc1ccc(O)cc1)c1ncc(-c2cccc(Nc3cc(C)ccn3)n2)s1 (stereo not shown)", "0.1 to 1 µM"],
  ["Cc1ccnc(Nc2cccc(-c3cnc([C@H]4CC[C@H](CN5C[C@@H](O)[C@@H](O)C5)CC4)s3)n2)c1", "< 0.1 µM"],
  ["Cc1ccnc(Nc2cccc(-c3cnc([C@H]4CC[C@H](C(=O)N5CC[C@@H](O)C5)CC4)s3)n2)c1", "< 0.1 µM"],
  ["Cc1ccnc(Nc2cccc(-c3cnc([C@H]4CC[C@H](C(=O)NCCO)CC4)s3)n2)c1", "< 0.1 µM"]
]}

Origin of measurements: patent US7803801B2
